Test system: lymphocytic leukemia P388
assaySummary: Lymphocytic Leukemia P388 Test
Format: in vivo, BDF1 mice
conditionContext: dose 0.75 mg/kg intraperitoneally on days 1, 5 and 9; ratio of survival time treated/control
readoutType: T/C × 100 (%)

compound	systemTested	result
C[C@H](NC(=O)[C@H](CO)NC(=O)OC(C)(C)C)C(=O)NCCNc1ccc(NCCNC(=O)[C@H](C)NC(=O)[C@H](CO)NC(=O)OC(C)(C)C)c2c1C(=O)c1c(O)ccc(O)c1C2=O [Example 75]	lymphocytic leukemia P388	154%
C[C@@H](O)[C@H](N)C(=O)NCCNc1ccc(NCCNC(=O)[C@@H](N)[C@@H](C)O)c2c1C(=O)c1c(O)ccc(O)c1C2=O.O=C(O)C(F)(F)F.O=C(O)C(F)(F)F (relative stereo) [Example 26]	lymphocytic leukemia P388	210%
CC(C)C[C@H](N)C(=O)NCCNc1ccc(NCCNC(=O)[C@@H](N)CC(C)C)c2c1C(=O)c1c(O)ccc(O)c1C2=O.Cl.Cl (stereo in doubt) [Example 18]	lymphocytic leukemia P388	213%

// provenance: patent US4732970A
